- System: SK-MEL-28 melanoma
- procedureText: NCI-60 one-dose screen, 48 h (100 = growth as untreated, 0 = no growth, -100 = all killed)
- runConditions: 10 µM unless noted
About 83,000 compounds went through this panel and 20% of them were active in at least one assay; those are over-represented in the sample as a whole.
propertyName: growth (%)
Provide the reading as a plain figure in %.

// below: answered compounds
In [3]: df
Out[3]:
                                 smilesdata  unittext  valueobserved
0  CN(C)S(=O)(=O)c1cccc(C(=O)Nc2nc(-c3ccc(F)c(F)c3)cs2)c1         %            102
1   OB1OCc2cc(/C=C/c3cccc(C(F)(F)F)c3)ccc21         %           45.5

Task: Look up and report measured growth for this entry: `Cc1cc(N2CCN(CC(=O)Nc3ccc4c(ccn4C)c3)CC2)nc(N2CCCCCC2)n1`
Output: 96.9

Task: Look up and report measured growth for this entry: `COC(=O)c1nc(-c2ccc(C)cc2)oc1S(=O)(=O)c1cccc(OC)c1`
Output: 99.2

Task: Look up and report measured growth for this entry: `Oc1c(Br)cc(Br)c2ccc(Cn3cc(-c4ccc(C(F)(F)F)cc4)nn3)nc12`
Output: 48.1
